Data provenance: PubChem BioAssay (NCATS)

test: S16 Schwann cell PMP22 intronic element beta-lactamase assay (AID 624044); details: S16 rat Schwann cells, PMP22 element beta-lactamase FRET, 24 h; series mostly up to 38.3 µM; note: nearly all actives have a fitted effect of over 15% in size
Results filed as inconclusive are left out. Activity calls are given as the source filed them. Calls come from the whole dose curve.
Please reply with one of these outcomes: active, inactive

Example results:
{"compound": "Cc1cc(CC(C)CC(C)(C)C)n(O)c(=O)c1 (stereo not given)", "qualitativeLabel": "active"}
{"compound": "CO[C@@H]1[C@@H](OC2OC(C)C(OC3CC(C)(O)C(OC(=O)CC(C)C)C(C)O3)C(N(C)C)C2O)[C@@H](CC=O)C[C@@H](C)C(=O)/C=C\\C2O[C@H]2C[C@@H](C)OC(=O)C[C@H]1OC(C)=O (stereo not given in full)", "qualitativeLabel": "inactive"}
{"compound": "NC1=NC(S)C2N=CN=C2N1 (stereo not given)", "qualitativeLabel": "active"}

Now consider a different compound.
Which result was noted for this compound in the test: `CN(C)CCCCCCN(C)C`
inactive
